target: Sodium channel protein type 10 subunit alpha (Rattus norvegicus, UniProt Q62968); assay: Inhibition of Nav1.8 channel in rat dorsal root ganglion neurons assessed as blockade of TTX-R current by patch clamp method; assay type: tissue-based
Attribute measured: pIC50
pIC50 is a log-scale quantity: -log10 of the concentration expressed in molar.

I'd like to know its pIC50. The compound in question is `COc1cc(NC(=O)c2ccc(-c3ccc(Cl)cc3)o2)cc(OC)c1` 6.85

====

molecular target: P2Y purinoceptor 2 (Homo sapiens, UniProt P41231)
Attribute measured: IC50

I'd like to know its IC50. The compound in question is `COc1cc(NC(=O)c2ccc(-c3ccc(Cl)cc3)o2)cc(OC)c1` > 10 µM

====

target: Kappa-type opioid receptor (Homo sapiens, UniProt P41145)
Sequence (P41145 whole entry): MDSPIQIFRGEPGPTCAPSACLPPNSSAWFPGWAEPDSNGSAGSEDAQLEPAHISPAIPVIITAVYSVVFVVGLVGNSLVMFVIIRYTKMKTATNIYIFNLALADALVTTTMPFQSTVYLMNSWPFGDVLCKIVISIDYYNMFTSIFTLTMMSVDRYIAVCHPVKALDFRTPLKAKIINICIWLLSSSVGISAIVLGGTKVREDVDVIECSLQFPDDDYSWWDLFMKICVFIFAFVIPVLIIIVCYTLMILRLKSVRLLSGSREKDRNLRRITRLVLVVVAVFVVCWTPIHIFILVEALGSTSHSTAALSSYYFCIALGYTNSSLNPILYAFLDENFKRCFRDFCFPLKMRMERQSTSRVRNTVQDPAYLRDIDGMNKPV
pIC50: −log10 of the molar value.
Attribute measured: pIC50

I'd like to know its pIC50. The compound in question is `COc1cc(NC(=O)c2ccc(-c3ccc(Cl)cc3)o2)cc(OC)c1` < 5.00

====

molecular target: Sodium channel protein type 10 subunit alpha (Rattus norvegicus, UniProt Q62968); test: Inhibition of Nav1.8 channel in rat dorsal root ganglion neurons assessed as blockade of TTX-R current at -100 mV by patch clamp method; assay type: tissue-based
Attribute measured: IC50 (nM)
Return type: number; implicit unit nM.

I'd like to know its IC50. The compound in question is `COc1cc(NC(=O)c2ccc(-c3ccc(Cl)cc3)o2)cc(OC)c1` 1000

====

molecular target: 5-hydroxytryptamine receptor 5A (Homo sapiens)
Attribute measured: IC50

I'd like to know its IC50. The compound in question is `COc1cc(NC(=O)c2ccc(-c3ccc(Cl)cc3)o2)cc(OC)c1` > 10 µM

====

assay: Tmax in rat at 10 mg/kg, ip; assay type: ADME, organism-based; parameters: dose 10 mg/kg, route intraperitoneal; conditions: in vivo
Attribute measured: Tmax (h)
Return type: number; implicit unit h.

I'd like to know its Tmax. The compound in question is `COc1cc(NC(=O)c2ccc(-c3ccc(Cl)cc3)o2)cc(OC)c1` 1.6

====

target: UniProt P08588
pIC50: −log10 of the molar value.
Attribute measured: pIC50

I'd like to know its pIC50. The molecule in question is `COc1cc(NC(=O)c2ccc(-c3ccc(Cl)cc3)o2)cc(OC)c1` < 5.00

====

assay: Cmax in rat at 10 mg/kg, ip; format: ADME, organism-based; set-up: dose 10 mg/kg, route intraperitoneal; settings: in vivo
Attribute measured: Cmax (ng/mL)
Return type: number; implicit unit ng/mL.

I'd like to know its Cmax. The compound in question is `COc1cc(NC(=O)c2ccc(-c3ccc(Cl)cc3)o2)cc(OC)c1` 350

====

biological target: Sodium channel protein type 5 subunit alpha (Homo sapiens); assay: Inhibition of human Nav1.5 channel expressed in HEK293 cells at -90 mV by patch clamp method; format: cell-based
Attribute measured: pIC50
pIC50 is a log-scale quantity: -log10 of the concentration expressed in molar.

I'd like to know its pIC50. The molecule in question is `COc1cc(NC(=O)c2ccc(-c3ccc(Cl)cc3)o2)cc(OC)c1` 5.13

====

test: Elimination half life in iv dosed rat; type: ADME, organism-based; details: in vivo
Attribute measured: half-life

I'd like to know its half-life. The compound in question is `COc1cc(NC(=O)c2ccc(-c3ccc(Cl)cc3)o2)cc(OC)c1` 4.9 h

====

biological target: Cannabinoid receptor 2 (Homo sapiens, UniProt P34972)
Attribute measured: IC50

I'd like to know its IC50. The molecule in question is `COc1cc(NC(=O)c2ccc(-c3ccc(Cl)cc3)o2)cc(OC)c1` > 10 µM

====

molecular target: Sodium channel protein type 10 subunit alpha (Homo sapiens); experiment: Inhibition of human Nav1.8 channel expressed in human HEK293 cells by patch clamp method; type: cell-based
Sequence (Q9Y5Y9 whole entry): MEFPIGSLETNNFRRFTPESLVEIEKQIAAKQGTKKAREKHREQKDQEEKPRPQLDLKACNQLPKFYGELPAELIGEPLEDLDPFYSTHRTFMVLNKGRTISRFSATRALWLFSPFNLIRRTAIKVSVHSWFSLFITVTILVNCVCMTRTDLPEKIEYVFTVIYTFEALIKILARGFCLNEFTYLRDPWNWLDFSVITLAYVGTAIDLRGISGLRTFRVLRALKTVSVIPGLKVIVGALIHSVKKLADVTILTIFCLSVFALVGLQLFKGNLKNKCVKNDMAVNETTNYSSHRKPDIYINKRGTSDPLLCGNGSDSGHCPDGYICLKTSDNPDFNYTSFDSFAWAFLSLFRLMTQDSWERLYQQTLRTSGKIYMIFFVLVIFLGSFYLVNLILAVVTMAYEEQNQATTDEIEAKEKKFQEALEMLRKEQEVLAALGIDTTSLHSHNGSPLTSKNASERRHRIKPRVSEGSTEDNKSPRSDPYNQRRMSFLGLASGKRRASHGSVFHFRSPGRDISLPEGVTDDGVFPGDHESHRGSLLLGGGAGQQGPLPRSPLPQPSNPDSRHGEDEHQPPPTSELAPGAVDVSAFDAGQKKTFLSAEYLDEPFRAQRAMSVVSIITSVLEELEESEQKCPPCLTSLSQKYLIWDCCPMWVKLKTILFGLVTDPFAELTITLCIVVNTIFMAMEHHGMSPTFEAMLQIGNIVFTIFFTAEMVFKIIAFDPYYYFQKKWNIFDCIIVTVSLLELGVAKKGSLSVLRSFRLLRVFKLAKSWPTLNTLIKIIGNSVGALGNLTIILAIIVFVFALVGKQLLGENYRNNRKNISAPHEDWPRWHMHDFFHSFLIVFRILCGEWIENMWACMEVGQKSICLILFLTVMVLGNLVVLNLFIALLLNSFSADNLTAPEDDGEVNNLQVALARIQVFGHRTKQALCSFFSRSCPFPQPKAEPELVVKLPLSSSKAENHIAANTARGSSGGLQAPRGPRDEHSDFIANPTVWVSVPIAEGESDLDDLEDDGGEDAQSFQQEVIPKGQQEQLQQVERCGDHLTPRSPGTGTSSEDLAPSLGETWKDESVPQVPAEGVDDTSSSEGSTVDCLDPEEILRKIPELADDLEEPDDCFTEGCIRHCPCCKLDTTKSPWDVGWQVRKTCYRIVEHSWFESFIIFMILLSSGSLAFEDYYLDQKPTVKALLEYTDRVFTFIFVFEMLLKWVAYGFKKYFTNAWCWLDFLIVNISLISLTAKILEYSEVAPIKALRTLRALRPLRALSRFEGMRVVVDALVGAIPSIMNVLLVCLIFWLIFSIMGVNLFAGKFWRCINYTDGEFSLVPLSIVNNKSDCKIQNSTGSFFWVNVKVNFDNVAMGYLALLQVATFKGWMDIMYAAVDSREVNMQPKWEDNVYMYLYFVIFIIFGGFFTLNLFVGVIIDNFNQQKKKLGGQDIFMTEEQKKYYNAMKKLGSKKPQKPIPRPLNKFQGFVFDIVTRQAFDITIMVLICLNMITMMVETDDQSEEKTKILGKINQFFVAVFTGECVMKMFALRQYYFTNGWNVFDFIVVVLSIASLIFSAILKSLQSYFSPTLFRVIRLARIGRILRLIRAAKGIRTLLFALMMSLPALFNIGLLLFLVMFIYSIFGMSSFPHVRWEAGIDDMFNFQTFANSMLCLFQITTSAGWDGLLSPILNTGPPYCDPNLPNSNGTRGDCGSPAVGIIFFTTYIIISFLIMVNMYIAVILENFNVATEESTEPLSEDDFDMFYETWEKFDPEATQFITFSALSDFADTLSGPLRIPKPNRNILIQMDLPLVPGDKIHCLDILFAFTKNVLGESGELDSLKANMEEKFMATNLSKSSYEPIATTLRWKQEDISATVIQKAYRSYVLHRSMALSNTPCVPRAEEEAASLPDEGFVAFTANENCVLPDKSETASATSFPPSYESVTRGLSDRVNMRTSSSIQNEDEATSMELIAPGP
Attribute measured: pIC50
pIC50 is a log-scale quantity: -log10 of the concentration expressed in molar.

I'd like to know its pIC50. The compound in question is `COc1cc(NC(=O)c2ccc(-c3ccc(Cl)cc3)o2)cc(OC)c1` 8.10

====

experiment: Bioavailability in rat at 10 mg/kg, ip; type: ADME, organism-based; settings: in vivo
Attribute measured: bioavailability

I'd like to know its bioavailability. The compound in question is `COc1cc(NC(=O)c2ccc(-c3ccc(Cl)cc3)o2)cc(OC)c1` 26%

====

Target: Muscarinic acetylcholine receptor M5 (Homo sapiens)
Sequence (P08912 whole entry): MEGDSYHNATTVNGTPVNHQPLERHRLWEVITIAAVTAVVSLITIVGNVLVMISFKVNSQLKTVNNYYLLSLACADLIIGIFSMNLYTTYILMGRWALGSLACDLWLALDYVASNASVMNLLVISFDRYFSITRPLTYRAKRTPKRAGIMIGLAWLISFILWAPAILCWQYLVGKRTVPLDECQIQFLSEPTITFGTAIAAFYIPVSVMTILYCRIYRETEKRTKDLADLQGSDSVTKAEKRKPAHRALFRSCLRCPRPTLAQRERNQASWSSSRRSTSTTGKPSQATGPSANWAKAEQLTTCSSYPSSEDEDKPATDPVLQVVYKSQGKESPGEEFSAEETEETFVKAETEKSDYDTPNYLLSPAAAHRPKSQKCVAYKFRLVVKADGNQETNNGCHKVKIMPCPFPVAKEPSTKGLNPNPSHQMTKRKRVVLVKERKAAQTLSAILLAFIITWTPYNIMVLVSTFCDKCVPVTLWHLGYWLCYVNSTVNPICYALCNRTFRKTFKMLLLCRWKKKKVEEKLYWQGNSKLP
Attribute measured: IC50

Lookup: IC50 / Muscarinic acetylcholine receptor M5 (Homo sapiens) / `COc1cc(NC(=O)c2ccc(-c3ccc(Cl)cc3)o2)cc(OC)c1` > 10 µM

====

target: UniProtKB P28223
Attribute measured: pIC50
pIC50 is a log-scale quantity: -log10 of the concentration expressed in molar.

Lookup: pIC50 / UniProtKB P28223 / `COc1cc(NC(=O)c2ccc(-c3ccc(Cl)cc3)o2)cc(OC)c1` 5.52

====

molecular target: Endothelin-1 receptor (Homo sapiens, UniProt P25101)
pIC50: −log10 of the molar value.
Attribute measured: pIC50

I'd like to know its pIC50. The molecule in question is `COc1cc(NC(=O)c2ccc(-c3ccc(Cl)cc3)o2)cc(OC)c1` < 5.00

====

assay: Oral bioavailability in rat; format: ADME, organism-based; conditions: in vivo
Attribute measured: bioavailability
Give your result as the value with the unit written after it.

I'd like to know its bioavailability. The compound in question is `COc1cc(NC(=O)c2ccc(-c3ccc(Cl)cc3)o2)cc(OC)c1` 12.8%

====

test: Displacement of [3H]PACAP1-27 from PACAP PAC1 receptor
Attribute measured: IC50

I'd like to know its IC50. The compound in question is `COc1cc(NC(=O)c2ccc(-c3ccc(Cl)cc3)o2)cc(OC)c1` > 10 µM

====

biological target: D(2) dopamine receptor (Homo sapiens); assay: Displacement of [3H]spiperone from dopamine D2 receptor
Sequence (P14416 whole entry): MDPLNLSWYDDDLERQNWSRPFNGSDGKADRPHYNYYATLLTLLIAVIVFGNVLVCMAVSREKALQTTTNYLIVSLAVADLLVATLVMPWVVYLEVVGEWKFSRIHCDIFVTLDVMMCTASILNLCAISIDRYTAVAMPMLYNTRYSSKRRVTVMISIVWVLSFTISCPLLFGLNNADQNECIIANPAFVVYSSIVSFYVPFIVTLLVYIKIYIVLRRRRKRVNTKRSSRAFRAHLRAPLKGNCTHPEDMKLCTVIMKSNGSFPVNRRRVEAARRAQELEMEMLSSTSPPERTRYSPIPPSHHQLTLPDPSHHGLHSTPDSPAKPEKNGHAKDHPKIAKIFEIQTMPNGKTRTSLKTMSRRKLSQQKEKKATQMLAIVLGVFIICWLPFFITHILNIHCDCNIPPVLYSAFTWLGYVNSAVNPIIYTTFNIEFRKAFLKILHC
Attribute measured: IC50

I'd like to know its IC50. The compound in question is `COc1cc(NC(=O)c2ccc(-c3ccc(Cl)cc3)o2)cc(OC)c1` > 10 µM

====

target: Sodium channel protein type 3 subunit alpha (Homo sapiens); experiment: Inhibition of human Nav1.3 channel expressed in HEK293 cells at -120 mV by patch clamp method; assay type: cell-based
Sequence (Q9NY46 whole entry): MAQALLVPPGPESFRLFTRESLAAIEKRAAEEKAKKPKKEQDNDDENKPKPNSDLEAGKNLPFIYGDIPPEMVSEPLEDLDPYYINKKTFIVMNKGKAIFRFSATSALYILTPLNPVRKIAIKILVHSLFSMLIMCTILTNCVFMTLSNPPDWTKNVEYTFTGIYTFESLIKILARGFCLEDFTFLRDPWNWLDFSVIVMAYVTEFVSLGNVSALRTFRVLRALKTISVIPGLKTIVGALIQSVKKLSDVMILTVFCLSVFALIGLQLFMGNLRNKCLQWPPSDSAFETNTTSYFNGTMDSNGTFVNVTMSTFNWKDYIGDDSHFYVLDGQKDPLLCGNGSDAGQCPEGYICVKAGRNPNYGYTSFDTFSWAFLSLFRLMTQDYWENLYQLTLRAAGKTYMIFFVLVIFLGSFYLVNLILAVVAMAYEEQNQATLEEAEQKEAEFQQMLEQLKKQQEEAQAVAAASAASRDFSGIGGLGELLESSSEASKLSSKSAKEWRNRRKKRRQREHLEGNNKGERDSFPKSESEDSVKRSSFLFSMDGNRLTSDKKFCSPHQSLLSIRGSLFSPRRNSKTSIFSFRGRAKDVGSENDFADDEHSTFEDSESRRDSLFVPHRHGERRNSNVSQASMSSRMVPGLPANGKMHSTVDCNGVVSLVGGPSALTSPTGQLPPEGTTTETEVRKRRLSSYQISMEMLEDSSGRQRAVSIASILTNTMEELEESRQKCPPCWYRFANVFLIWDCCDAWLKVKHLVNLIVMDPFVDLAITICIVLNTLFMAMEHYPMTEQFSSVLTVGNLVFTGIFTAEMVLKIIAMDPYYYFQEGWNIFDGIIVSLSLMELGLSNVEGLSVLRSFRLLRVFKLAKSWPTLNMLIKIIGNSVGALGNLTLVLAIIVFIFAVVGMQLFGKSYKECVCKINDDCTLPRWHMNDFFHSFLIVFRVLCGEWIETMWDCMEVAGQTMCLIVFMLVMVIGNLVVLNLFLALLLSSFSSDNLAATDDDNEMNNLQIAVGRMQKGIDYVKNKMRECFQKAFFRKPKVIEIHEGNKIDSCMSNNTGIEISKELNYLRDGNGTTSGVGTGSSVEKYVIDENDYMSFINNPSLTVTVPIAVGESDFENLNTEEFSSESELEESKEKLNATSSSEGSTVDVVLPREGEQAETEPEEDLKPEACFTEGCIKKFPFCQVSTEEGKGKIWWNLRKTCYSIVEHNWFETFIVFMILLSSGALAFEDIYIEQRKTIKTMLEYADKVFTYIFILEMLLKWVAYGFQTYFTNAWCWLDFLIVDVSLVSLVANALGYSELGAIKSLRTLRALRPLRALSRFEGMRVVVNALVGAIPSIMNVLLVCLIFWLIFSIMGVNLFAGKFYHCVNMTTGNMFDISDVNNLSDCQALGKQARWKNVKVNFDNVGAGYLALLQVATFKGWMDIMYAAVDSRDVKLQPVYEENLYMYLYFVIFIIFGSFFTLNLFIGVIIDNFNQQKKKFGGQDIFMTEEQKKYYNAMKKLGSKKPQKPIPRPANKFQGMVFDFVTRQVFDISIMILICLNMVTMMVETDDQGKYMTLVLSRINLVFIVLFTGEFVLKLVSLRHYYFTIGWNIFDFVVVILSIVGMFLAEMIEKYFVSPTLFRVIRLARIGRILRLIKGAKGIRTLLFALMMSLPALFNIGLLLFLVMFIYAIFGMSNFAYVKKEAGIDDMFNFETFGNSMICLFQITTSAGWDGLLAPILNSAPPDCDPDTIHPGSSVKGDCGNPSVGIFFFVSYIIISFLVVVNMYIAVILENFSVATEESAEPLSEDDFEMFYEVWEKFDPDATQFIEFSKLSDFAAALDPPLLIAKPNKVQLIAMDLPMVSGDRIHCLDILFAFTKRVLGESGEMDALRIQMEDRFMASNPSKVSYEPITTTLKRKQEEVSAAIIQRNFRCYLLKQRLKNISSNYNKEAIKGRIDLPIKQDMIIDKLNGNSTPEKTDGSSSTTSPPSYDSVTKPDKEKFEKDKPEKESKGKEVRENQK
Attribute measured: IC50 (µM)
Return type: number; implicit unit µM.

I'd like to know its IC50. The compound in question is `COc1cc(NC(=O)c2ccc(-c3ccc(Cl)cc3)o2)cc(OC)c1` 11.8

====

molecular target: Sodium channel protein type 2 subunit alpha (Homo sapiens); test: Inhibition of human Nav1.2 channel expressed in HEK293 cells at -60 mV by patch clamp method; format: cell-based
Attribute measured: IC50 (µM)
Return type: number; implicit unit µM.

I'd like to know its IC50. The compound in question is `COc1cc(NC(=O)c2ccc(-c3ccc(Cl)cc3)o2)cc(OC)c1` 7.38

====

assay: Displacement of [3H]GABA from GABA receptor
Attribute measured: IC50

I'd like to know its IC50. The molecule in question is `COc1cc(NC(=O)c2ccc(-c3ccc(Cl)cc3)o2)cc(OC)c1` > 10 µM

====

target: Voltage-dependent N-type calcium channel subunit alpha-1B (Homo sapiens, UniProt Q00975); test: Inhibition of Cav2.2 channel
Attribute measured: IC50

I'd like to know its IC50. The compound in question is `COc1cc(NC(=O)c2ccc(-c3ccc(Cl)cc3)o2)cc(OC)c1` > 10 µM

====

Target: C-X-C chemokine receptor type 2 (Homo sapiens, UniProt P25025)
Sequence (P25025 whole entry): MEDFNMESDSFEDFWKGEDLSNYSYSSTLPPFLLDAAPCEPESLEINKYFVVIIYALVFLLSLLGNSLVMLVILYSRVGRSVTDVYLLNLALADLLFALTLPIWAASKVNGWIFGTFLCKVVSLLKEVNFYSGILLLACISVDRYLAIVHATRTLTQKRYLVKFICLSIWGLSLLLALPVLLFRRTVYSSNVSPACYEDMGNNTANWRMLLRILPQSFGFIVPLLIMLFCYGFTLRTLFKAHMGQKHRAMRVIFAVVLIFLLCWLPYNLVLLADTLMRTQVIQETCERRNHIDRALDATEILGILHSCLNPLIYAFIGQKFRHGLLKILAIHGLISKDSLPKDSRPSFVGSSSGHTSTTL
Attribute measured: IC50

I'd like to know its IC50. The compound in question is `COc1cc(NC(=O)c2ccc(-c3ccc(Cl)cc3)o2)cc(OC)c1` > 10 µM
